Measured growth inhibition of individual entries
Assay: NCI Yeast Anticancer Drug Screen. Data for the mec2-1 strain (AID 157)
Conditions: S. cerevisiae mec2-1 strain, at 50.0 µM (retest, dose inferred, filed as 5.0), stronger effect = higher value
Compounds without any hit were thinned out: in the full panel of roughly 79,000, 15% have a hit.
quantity_kind: growth inhibition (%)

{"columns": ["compound", "data_value"],
 "data": [
  ["CCC[CH2][Sn]1([CH2]CCC)[O]CC(CN2CCCCC2)[O]1 (stereo unspecified)", 95],
  ["O=C1CN2CCCCC2CN1 (stereo unspecified)", -47],
  ["O=P(c1ccccc1)(c1ccccc1)c1ccccc1.[Cl][Sn]([c]1ccccc1)([c]1ccccc1)[c]1ccccc1", 98],
  ["O=[N+]([O-])c1ccc(C2C3CC4C(OOC42)C3I)cc1 (stereo unspecified)", 9],
  ["CC(=O)O[C@@H]1[C@@H](O)[C@H]2O[C@@H]3C=C(C)C(=O)[C@@H](O)[C@]3(CO)[C@]1(C)[C@]21CO1", 93],
  ["CC1CC[N-]C(C)C1.CN(C)C=O.[Cl][Pt][Cl] (stereo unspecified)", 100],
  ["C/C(=N\\N=C(/[Se])N1CCC(C)CC1)c1ccccn1", 91],
  ["CC(=O)[O-].O=C([CH-]C(=O)c1ccccc1)c1ccccc1.O=C([CH-]C(=O)c1ccccc1)c1ccccc1.[Dy+3]", 99],
  ["O=C([CH-]C(=O)c1ccccc1)c1ccccc1.O=C([CH-]C(=O)c1ccccc1)c1ccccc1.[CH2-]CCC.[CH2-]CCC.[Sn+4]", 99],
  ["[Au+].[Au+].[Au+].[c-]1nccn1Cc1ccccc1.[c-]1nccn1Cc1ccccc1.[c-]1nccn1Cc1ccccc1", 98],
  ["O=C(CC(=O)c1ccccc1)c1ccccc1.O=C(CC(=O)c1ccccc1)c1ccccc1.O=C(CC(=O)c1ccccc1)c1ccccc1.[Al]", 4],
  ["[Se]C1=NCCN1", 34],
  ["O=C(O)c1ccccc1.[Zn+2]", -10],
  ["CC(C)C12C=C3CCC4C(C)(C(=O)O)CCCC4(C)C3(CC1)OO2 (stereo unspecified)", 95],
  ["C1CCC(NCC2CCCO2)CC1 (stereo unspecified)", -21],
  ["O=C([O][Hg][CH2]C1COC([CH2][Hg][O]C(=O)c2ccccc2)CO1)c1ccccc1 (stereo unspecified)", 99],
  ["COc1ccc2nc3ccccc3c(NCCCCN(C)CCCl)c2c1", 87],
  ["CC1=CC(=O)c2c(O)cccc2C1=O", 99],
  ["COc1ccc(/C=C(\\C)[N+](=O)[O-])cc1OC", 99],
  ["N=C(N)c1ccc(NN=Nc2cccc3c2Oc2ccccc2O3)cc1", 84],
  ["[Cl][Sn]([c]1ccccc1)([c]1ccccc1)[c]1ccccc1", 99],
  ["COc1ccc([As]=[As]c2ccc(OC)c(I)c2)cc1I (stereo unspecified)", 100],
  ["CCC[CH2][Sn]1([CH2]CCC)[O]C(=O)c2cccnc2[S]1", 97],
  ["NC(=S)C1=C(N)Oc2c(c(=O)oc3ccccc23)C1c1ccc(Br)cc1 (stereo unspecified)", 73],
  ["CCOC(=O)C(Cl)Cl", -2],
  ["CS(=N)(=O)CCC(N)C(=O)O (stereo unspecified)", -48],
  ["O=[N+]([O-])c1cc(Cl)ccc1S(=O)(=O)F", 99],
  ["C/C(=N\\NC(=S)N1CC2CCC(CC2)C1)c1nccs1", 99],
  ["Nc1cc2[nH]cnc2c([Se])n1", -11],
  ["[CH3][Sn]([CH3])([Br])[Br].c1ccc(-c2nnc(-c3ccccn3)nc2-c2ccccc2)cc1", 58],
  ["CC(=O)C(CN(CC(C)C)CC(C)C)C(c1ccccc1)c1c(O)c2ccccc2oc1=O (stereo unspecified)", -12],
  ["Nc1ccc(Br)cc1C(=O)c1ccccc1", 97],
  ["CCC[CH2][Pb]([CH2]CCC)([CH2]CCC)[n]1ccnc1", 99],
  ["O=[N+]([O-])c1ccc(CS(=O)(=O)C(Cl)Cl)o1", 52],
  ["Nc1nc(N)c(-c2ccc(Cl)c(Cl)c2)c(COc2cccc(CNS(=O)(=O)c3ccc(S(=O)(=O)F)cc3)c2)n1", 86],
  ["CC1(CO)C(O)CCC2(C)C1CCC1CC3CC12CCC3(O)CO (stereo unspecified)", 99],
  ["CC1(C)N=C(N)N=C(N)N1c1ccc(OCC(=O)Nc2cccc(S(=O)(=O)F)c2)c(Cl)c1", 97],
  ["O=[N+]([O-])c1ccc(NP(=S)(Nc2ccc([N+](=O)[O-])cc2)c2ccccc2)cc1", 94],
  ["C1CCNCC1.O=C([CH-]C(=O)C(F)(F)F)c1ccc2c(c1)C(=O)c1ccccc1-2.O=C([CH-]C(=O)C(F)(F)F)c1ccc2c(c1)C(=O)c1ccccc1-2.O=C([CH-]C(=O)C(F)(F)F)c1ccc2c(c1)C(=O)c1ccccc1-2.O=C([CH-]C(=O)C(F)(F)F)c1ccc2c(c1)C(=O)c1ccccc1-2.[Eu+3]", 64],
  ["CC[PH+](CC)CC.[Cl][Au]", 99],
  ["C1CC[N-]CC1.C1CC[N-]CC1.N#C[S-].N#C[S-].[Cd]", 69]
]}

###

Test: NCI Yeast Anticancer Drug Screen. Data for the bub3 strain (AID 167)
Settings: S. cerevisiae bub3 mutant strain, at 50.0 µM (retest, dose inferred, filed as 5.0), stronger effect = higher value
About 79,000 compounds went through this panel and 15% of them were active in at least one assay; those are over-represented in the sample as a whole.
Measured growth inhibition of individual entries

{"columns": ["molecule", "growth inhibition / %"],
 "data": [
  ["COc1ccc([Se][Se]c2ccc(OC)cc2OC)c(OC)c1", -4],
  ["COC(=O)[CH2][Sn]([CH2]C(=O)OC)([CH]1CCCCC1)[CH]1CCCCC1", 59],
  ["CCCCCCCCc1ccc(OCCN(CCCl)CCCl)cc1", 99],
  ["CCC[CH2][Sn]1([CH2]CCC)[O]CCN2CCN(CC[O]1)CC2", 10],
  ["CCN1CCC(O)(c2ccc(O)cc2)C(C(=O)c2ccc(O)cc2)C1 (stereo not drawn)", 19],
  ["COC(=O)[CH2][Sn]([CH2]C(=O)OC)([c]1ccccc1)[c]1ccccc1", 99],
  ["CCC[CH2][Sn]1([CH2]CCC)[O]C(=O)CN=Cc2ccccc2[O]1", 90],
  ["O=[N+]([O-])O.c1ccc([As+](c2ccccc2)(c2ccccc2)c2ccccc2)cc1", 97],
  ["COc1cc2c(cc1OC)C(OC)N(C)c1c-2ccc2cc3c(cc12)OCO3 (stereo not drawn)", 30],
  ["O=C([O-])C(F)(F)C(F)(F)F.[C-]#[O+].[C-]#[O+].[C-]#[O+].[C-]#[O+].[C-]#[O+].[Re]", -4],
  ["ClCc1ccncc1", 73],
  ["COc1cc(OC)c(/C=C(\\C)[N+](=O)[O-])cc1Br", 0],
  ["CC1(C)N=C(N)N=C(N)N1c1ccc(OCCCCNC(=O)Nc2ccc(S(=O)(=O)F)cc2)c(Cl)c1", 98],
  ["CC(=O)C(CN1CCOCC1)C(c1ccccc1)c1c(O)c2ccccc2oc1=O (stereo not drawn)", 83],
  ["C=NCC#N", -2],
  ["CC(CCC/C=C/CCCN(C)C(=N)N)CC(C)C1OC(=O)C(C)C(O)/C=C/C(C)C(O)C(C)C(O)C(C)C(O)CCCC(O)CC2(O)OC(CC(OC(=O)CC(=O)O)CC(O)CC(O)C(C)C(O)/C=C/C=C/C1C)CC(O)C2O (stereo not drawn)", 99],
  ["BrP(NC1CCCCCC1)(c1ccccc1)(c1ccccc1)c1ccccc1", 98],
  ["CC(=O)[CH-]C(C)=O.CC(=O)[CH-]C(C)=O.N=CC=N.[Sn+2]", 99],
  ["[Cl][Sn]([c]1ccccc1)([c]1ccccc1)[c]1ccccc1", 99],
  ["C[CH2][Sn]([Cl])([CH2]C)[CH2]C", 83],
  ["Oc1cc(Cl)c(Cl)cc1Cl.[Cu+2]", 97],
  ["O=[N+]([O-])O.[In]", 58],
  ["COC1OC(OC)[CH]([Hg][Cl])C1OC (stereo not drawn)", 99],
  ["CC1=NNC(=O)C1(Br)Br", 75],
  ["O=[N+]([O-])/C=C\\c1ccc2c(c1)OCO2", 94],
  ["CCC[CH2][Sn]([CH2]CCC)([O]C(=O)CCC(C)=O)[O]C(=O)CCC(C)=O", 99],
  ["O=P(O)(Oc1ccccc1)Oc1ccccc1.[Ag]", 99],
  ["C[C@]12C/C(=C/O)C(=O)C(O)=C1CC[C@@H]1C2CC[C@@]2(C)C1CC[C@@H]2O (stereo partly drawn)", 81],
  ["CCOP(=O)(OCC)/C(C#N)=C/c1ccc(Br)cc1", 97],
  ["CN(C)N(P(N)(Cl)(c1ccccc1)c1ccccc1)P(N)(Cl)(c1ccccc1)c1ccccc1", 88],
  ["C/C(=N\\NC(=S)N1CC2CCC(CC2)C1)c1nccs1", 99],
  ["Cc1cc(C)c(C[N+](C)(C)C)c(C)c1C", 98],
  ["CN1CCN(c2ccc3nc(-c4ccc5nc(-c6ccc(N(C)CCCl)cc6)[nH]c5c4)[nH]c3c2)CC1", 99],
  ["CNC1C(O)CC(OC2C/C=C(\\C)C/C(C)=C/C=C/CCC(C)CNC(=O)/C=C/C=C/C2C)OC1C (stereo not drawn)", 100],
  ["Clc1nc(Cl)nc(Nc2ccccc2Cl)n1", 99],
  ["CC(C)CCC(=O)OC1CCC2(C)C(=CCC3C2CCC2(C)C(O)CCC32)C1 (stereo not drawn)", 15],
  ["CC(c1ccccc1)N1O[C@]12CC[C@@]1(C)C(CCCC13OCCO3)C2 (stereo partly drawn)", 98],
  ["Cc1sc(Cc2ccccc2)nc1-c1ccc(N=Cc2ccc(N(CCCl)CCCl)cc2)cc1", 96],
  ["O=[N+]([O-])c1cccc([N+](=O)[O-])c1Cl", 33],
  ["O=C(CCl)Nc1ccc(Cl)cc1", 40],
  ["OC(c1ccccc1)(c1ccccc1)c1ccccn1", 3],
  ["CC(=N\\O)/C(C)=N/O.CC(=N\\O)/C(C)=N/O.CC(=N\\O)/C(C)=N/O.CC(=N\\O)/C(C)=N/O.[CH3-].[CH3-].[Co].[Co]", 13],
  ["Oc1c(O)c(Br)c(Br)c(Br)c1Br", 98]
]}
